Data provenance is PubChem BioAssay AID1159580.

- EXPERIMENT DESCRIPTION: chemical genetic growth profiling, strain panel (AID 1159580);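 note: tested at 20 µM; growth read once vehicle control cultures reached saturation at 30 °C; 1 = growth at the plate median or of vehicle wells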
- TEST CONTEXT: S. cerevisiae deletion strains, growth OD, locus YDL074C, strain BRE1, stronger effect = lower value
The whole screen tested about 5,500 compounds, of which about 2,000 (36%) were called active. About 18% were inconclusive and are not listed. The list shows a part of the results.
normalized growth overview

Solved cases (6 shown):
COC(=O)c1c(C)c2c(c(C)c1OC)OC(=O)c1c(C)c(Cl)c(OC)c(Cl)c1O2 ... 1.04 (inactive)
COc1c(C)c2c(c(C)c1Cl)Oc1c(Cl)c(OC)c(Cl)c(C)c1C(=O)O2 ... 1 (inactive)
CCN(CC)CCOC(=O)C1(C2CCCCC2)CCCCC1 ... 0.965 (inactive)
O=C(OCc1ccccc1)c1ccccc1 ... 0.95 (inactive)
NC(=O)NC(=O)Cc1ccccc1 ... 1.16 (inactive)
Cc1cc(=O)oc2cc(O)c(O)cc12 ... 0.976 (inactive)

For reference, reported normalized growth for "CCCc1c(OCCCCc2nn[nH]n2)ccc(C(C)=O)c1O" stands at 1.06 (inactive)

###

- EXPERIMENT DESCRIPTION: chemical genetic growth profiling, strain panel (AID 1159580);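 note: tested at 20 µM; growth read once vehicle control cultures reached saturation at 30 °C; 1 = growth at the plate median or of vehicle wells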
- TEST CONTEXT: S. cerevisiae deletion strains, growth OD, locus YDL192W, strain arf1
Hit rate of the full screen: of about 5,500 compounds, about 2,000 (36%) were called active. Inconclusive results (about 18%) are left out. No stated cut-off is given here; in the data, active means normalized growth mostly below about 0.91 (no sharp cut-off); inconclusive means no clear call, values can overlap the other calls; inactive means mostly above about 0.92. Some of the results follow.
Assign a class; possible classes are yes (1) (active), no (0) (inactive)

CC(C)=CCc1c2c(c3occ(-c4ccc(O)c(O)c4)c(=O)c3c1O)C=CC(C)(C)O2 ... yes (1)
CC(C)=CCc1c2c(c3occ(-c4ccc(O)cc4)c(=O)c3c1O)C=CC(C)(C)O2 ... yes (1)

What did the test return for CO[C@H]1CC(O[C@@H]2/C(C)=C/C[C@@H]3C[C@@H](C[C@]4(CC[C@H](C)[C@@H](C5CCCCC5)O4)O3)OC(=O)[C@@H]3C=C(C)/C(=N\O)[C@H]4OC/C(=C\C=C\[C@@H]2C)[C@]43O)O[C@@H](C)C1O (some centres undefined) ?
no (0)

Hey, what did the test say about CC(=O)O[C@H]1CC[C@@]2(C)C(=CC(=O)C3C4CCC(C(C)CCCC(C)C)[C@@]4(C)CCC32)C1 (some centres undefined) ?
no (0)

###

- EXPERIMENT DESCRIPTION: chemical genetic growth profiling, strain panel (AID 1159580);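 note: tested at 20 µM; growth read once vehicle control cultures reached saturation at 30 °C; 1 = growth at the plate median or of vehicle wells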
- TEST CONTEXT: S. cerevisiae deletion strains, growth OD, locus YJL128C, strain PBS2, stronger effect = lower value
The whole screen tested about 5,500 compounds, of which about 2,000 (36%) were called active. About 18% were inconclusive and are not listed. Some of the results follow.
PARAMETER: normalized growth
Would you mind answering with just the numeric figure?

# count of solved cases: 10
O=S(=O)(Nc1ccccc1Oc1ccccc1)c1ccc(-c2ccno2)s1 ... 0.953
O=[N+]([O-])c1cccc(C2CC(c3ccccc3)=Nc3ccccc3S2)c1 (stereo not drawn) ... 0.93
Cc1nn(-c2cccc(Cl)c2)c2oc(=O)cc(C(F)(F)F)c12 ... 0.95
CSc1n[nH]c(-c2cc(C(C)(C)C)oc2C)c1C#N ... 0.894
CSc1sc(C(=O)Sc2ccccc2)cc1S(=O)(=O)C(C)C ... 0.937
O=C(Nc1ccc(F)cc1F)c1cc(Cl)c(-n2cccc2)c(Cl)c1 ... 0.953
N#CSCC(=O)c1ccccc1 ... 0.499
CC(=O)c1ccc(Cl)c(N=Cc2cc(Cl)cc(Cl)c2O)c1 ... 0.9
CC(=O)c1ccc(Cl)c(N=Cc2cc(Br)cc(Br)c2O)c1 ... 0.0977
CCOC(=O)/C(C#N)=C(\Nc1ccc(C(=O)OCC)cc1)SC ... 0.913

Given item "Clc1ccc(SCc2ccsc2-c2ncns2)cc1" , the value recorded as its normalized growth is 0.961

# normalized growth of "O=S(=O)(Oc1ccc(-c2csnn2)cc1)c1ccccc1Cl" = 0.938

response.value for "Cc1c(C)c(C)c(C(=O)c2ccc(N=Cc3cc(Cl)cc(Cl)c3O)cc2)c(C)c1C" (field: normalized growth) = 0.927
